The reported numbers originate from the supplement of paper PMC10567573.

I'd be grateful if you could share measured protein stability index for these entries.
B1: PLAGL1 (parent)
chain: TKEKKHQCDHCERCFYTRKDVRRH

variants of: B1; test: protein stability index of a GFP-peptide fusion (GPS, HEK-293T) (PSI 1-6); higher = more stable; conditions: c terminus: a fixed tail appended;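 further: lentivirally expressed fusions sorted by FACS into six bins by GFP to DsRed ratio, PSI derived from sequencing read proportions per bin multiplied by bin number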

Given the entry TKEKKHQCDHHERCFYTRKDVRRH [C11H] , report its measured protein stability index.
3.31

Given the entry TKEKGHQCDHCERCFYTRKDVRRH [K5G] , report its measured protein stability index.
3.04

Given the entry TKEKKHQCDHEERCFYTRKDVRRH [C11E] , report its measured protein stability index.
4.31

Given the entry TKEKKHQCDHCSRCFYTRKDVRRH [E12S] , report its measured protein stability index.
3.03

Given the entry TKEKKHQCDHCERCFRTRKDVRRH [Y16R] , report its measured protein stability index.
4

Given the entry TKEKKHQCDHCMRCFYTRKDVRRH [E12M] , report its measured protein stability index.
3.15

Given the entry TKEKKHQCDLCERCFYTRKDVRRH [H10L] , report its measured protein stability index.
2.55

Given the entry TKEKKHQCDHCERCFYTRKVVRRH [D20V] , report its measured protein stability index.
3.71

Given the entry TKEKKIQCDHCERCFYTRKDVRRH [H6I] , report its measured protein stability index.
2.94

Given the entry TKEKKRQCDHCERCFYTRKDVRRH [H6R] , report its measured protein stability index.
2.95

Given the entry TKEKKHQCDHCERCFYTRDDVRRH [K19D] , report its measured protein stability index.
3.39
